src = the supplement of paper PMC9433436

# target.system: E. coli RNase P holoenzyme (M1 P RNA + rnpA protein)
# Sequence: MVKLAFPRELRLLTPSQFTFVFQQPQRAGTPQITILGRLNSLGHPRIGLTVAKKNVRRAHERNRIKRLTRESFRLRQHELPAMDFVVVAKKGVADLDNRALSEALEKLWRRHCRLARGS
# assay.explanation: relative kcat/Km (krel) vs genomic leader AAAGAU (relative (reference leader = 1)); higher = faster RNase P cleavage
# condition.context: fraction of substrate reacted: ~13-16% (15.68% repeat 1, 13.17% repeat 2)
The full ranking holds about 4,100 sequences; the median of “relative kcat/Km (krel) vs genomic leader AAAGAU” is about 1.7, and the highest 2% start at about 6.5. The list comes from a sample in which the highest values are over-represented; it also holds close analogues and randomly drawn sequences.
Param threshold (3) applies to relative kcat/Km; output Criterion met when value >= threshold, Criterion not met when value < threshold.

Record excerpt, results attached:
# sequence.content, category
records = [
    ("GTCCGC", "Criterion met"),
    ("ATCCTA", "Criterion met"),
    ("GACAAG", "Criterion not met"),
    ("CTCACC", "Criterion met"),
    ("CTTGGA", "Criterion not met"),
    ("ACGCTA", "Criterion not met"),
    ("ACACCT", "Criterion not met"),
    ("GGCTTC", "Criterion not met"),
]

Entry TATACC : is its relative kcat/Km no less than 3?
Criterion not met

Entry CTAGAC : is its relative kcat/Km no less than 3?
Criterion met

Entry ATCCGA : is its relative kcat/Km no less than 3?
Criterion met
